These data points were gathered from patent US8030354B2.

Target: GPR40 (Homo sapiens)
Assay: Cell-based aequorin assay (CHO cells stably expressing GPR40 and aequorin)
Set-up: expressed in transfected cells; host or cells: CHO cells stably transfected with GPR40 and aequorin
Conditions: activation of human GPR40, CHO cells, 0.01% HSA
pEC50: −log10 of the molar value.
Entries annotated with measured pEC50

Consider the worked cases shown below.
[
  {
    "COMPOUND": "COc1ccc(F)c(-c2ccc(COc3cccc(C(CC(=O)O)CC4CC4)c3)cc2C2CCCCCC2)c1 (single isomer, unassigned) [Example 69.1]",
    "pEC50": "6.00 to 7.00"
  },
  {
    "COMPOUND": "COc1ccc(F)c(-c2ccc(COc3cccc(CCC(=O)O)c3)cc2OC(F)(F)F)c1 [Example 38]",
    "pEC50": "6.00 to 7.00"
  }
]

Next, consider the following compound.
Query pEC50 on GPR40 (Homo sapiens) for CC[C@H](CC(=O)O)c1cccc(OCc2ccc(-c3cccc(OC)c3)c(C3CCCCCC3)c2)c1 (single isomer, unassigned) [Example 78.8]
6.00 to 7.00

----------
Entries annotated with measured EC50
Biological target: GPR40 (Homo sapiens, UniProt O14842)
Sequence (O14842 whole entry): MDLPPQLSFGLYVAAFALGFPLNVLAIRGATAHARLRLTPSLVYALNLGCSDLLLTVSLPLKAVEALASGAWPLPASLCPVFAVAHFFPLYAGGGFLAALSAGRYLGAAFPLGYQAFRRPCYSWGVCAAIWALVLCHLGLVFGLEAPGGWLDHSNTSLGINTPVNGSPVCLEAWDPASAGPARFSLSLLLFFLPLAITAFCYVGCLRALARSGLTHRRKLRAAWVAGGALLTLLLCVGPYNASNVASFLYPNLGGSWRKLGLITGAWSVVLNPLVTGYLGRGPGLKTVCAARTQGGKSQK
Experiment: Cell-based aequorin assay (CHO cells stably expressing GPR40 and aequorin)
Set-up: expressed in transfected cells; host or cells: CHO cells stably transfected with GPR40 and aequorin
Conditions: activation of human GPR40, CHO cells, 0.01% HSA
Procedure: Briefly, the Aequorin assays were performed on doubly stable CHO cells expressing GPR40 and Aequorin DNA. […] The luminescence was recorded over a period of 20 seconds with a Microlumat luminometer (Berthold). […] The inositol phosphate assay was performed on an A9 cell line stably transfected with GPR40 (A9_GPR40). The cells were incubated with different concentrations of compounds and [^3H] inositol accumulation was measured after 1 hour. […]

[
  {
    "COMPOUND": "CCCC(CC(=O)O)c1cccc(OCc2ccc(-c3cccc(OC)c3)c(C3CCCCCC3)c2)c1 (single isomer, unassigned)",
    "ENDPOINT LABEL": "EC50",
    "OBSERVED MEASUREMENT": "100 to 1000 nM"
  },
  {
    "COMPOUND": "COc1ccc(F)c(-c2ccc(COc3cccc([C@@H](CC(=O)O)CC4CC4)c3)cc2SC(C)C)c1 (single isomer, unassigned)",
    "ENDPOINT LABEL": "EC50",
    "OBSERVED MEASUREMENT": "100 to 1000 nM"
  }
]

Next, consider the following compound.
Any idea what its EC50 is? The compound is COc1ccc(F)c(-c2ccc(COc3cccc(C(CC(=O)O)CC4CC4)c3F)cc2C2CCCC2(C)C)c1 (single isomer, unassigned) [Example 84.1]
100 to 1000 nM

----------
Entries annotated with measured pEC50
Target: UniProtKB O14842
Experiment: Inositol phosphate accumulation assay (A9_GPR40 cells)
Format: cell-based
Design: expressed in transfected cells; host or cells: CHO cells stably transfected with GPR40 and aequorin
Details: inositol phosphate assay, A9_GPR40 cells, 1 hour; read-out: IP3 EC50
pEC50: −log10 of the molar value.

Consider the worked cases shown below.
[
  {
    "COMPOUND": "COc1ccc(F)c(-c2c(F)cc(COc3cccc([C@@H](CC(=O)O)C4CC4)c3)cc2C2=CCCC2(C)C)c1 (single isomer, unassigned) [Example 66.49]",
    "TESTED ON": "UniProtKB O14842",
    "pEC50": "7.00 to 8.00"
  },
  {
    "COMPOUND": "CC[C@H](CC(=O)O)c1cccc(OCc2ccc(-c3cccc(OC)c3)c(C3CCCCCC3)c2)c1 (single isomer, unassigned) [Example 78.8]",
    "TESTED ON": "UniProtKB O14842",
    "pEC50": "7.00 to 8.00"
  },
  {
    "COMPOUND": "CC1(C)CCC=C1c1cc(COc2cccc([C@@H](CC(=O)O)C3CC3)c2F)ccc1-c1cc(C(F)F)ccc1F (single isomer, unassigned) [Example 83.12]",
    "TESTED ON": "UniProtKB O14842",
    "pEC50": "7.00 to 8.00"
  },
  {
    "COMPOUND": "COc1ccc(F)c(-c2ccc(COc3cccc([C@H](C)CC(=O)O)c3)cc2OC(F)(F)F)c1 (single isomer, unassigned) [Example 46]",
    "TESTED ON": "UniProtKB O14842",
    "pEC50": "5.00 to 6.00"
  },
  {
    "COMPOUND": "COc1ccc(F)c(-c2ccc(COc3cccc(C(CC(=O)O)CC4CC4)c3F)cc2C2CCCCC2(C)C)c1 (single isomer, unassigned) [Example 84.6]",
    "TESTED ON": "UniProtKB O14842",
    "pEC50": "> 8.00"
  }
]

Next, consider the following compound.
Any idea what its pEC50 is? The compound is COc1ccc(F)c(-c2ccc(COc3cccc([C@@H](CC(=O)O)CC4CC4)c3)cc2C2CC(C)(C)CC(C)(C)C2)c1 (single isomer, unassigned) [Example 69.32]
7.00 to 8.00

----------
Molecular target: GPR40 (Homo sapiens)
Experiment: Cell-based aequorin assay (CHO cells stably expressing GPR40 and aequorin)
Parameters: expressed in transfected cells; host or cells: CHO cells stably transfected with GPR40 and aequorin
Settings: activation of human GPR40, CHO cells, 0.01% HSA
Entries annotated with measured EC50

Consider the worked cases shown below.
[
  {
    "COMPOUND": "CCCC(CC(=O)O)c1cccc(OCc2ccc(-c3cc(OC)ccc3F)c(/C=C/C(C)(C)C)c2)c1 (single isomer, unassigned) [Example 67.4]",
    "TESTED ON": "GPR40 (Homo sapiens)",
    "ENDPOINT LABEL": "EC50",
    "OBSERVED MEASUREMENT": "0.1 to 1 µM"
  },
  {
    "COMPOUND": "CCC(C)(CC(=O)O)c1cccc(OCc2ccc(-c3cc(OC)ccc3F)c([C@@H]3CCCC3(C)C)c2)c1 (single isomer, unassigned) [Example 103]",
    "TESTED ON": "GPR40 (Homo sapiens)",
    "ENDPOINT LABEL": "EC50",
    "OBSERVED MEASUREMENT": "0.1 to 1 µM"
  }
]

Any idea what its EC50 is? The compound is COc1ccc(F)c(-c2cc(F)c(COc3cccc(C(CC(=O)O)CC4CC4)c3)cc2C2CCCC2(C)C)c1 (single isomer, unassigned) [Example 69.34]
0.1 to 1 µM

----------
Entries annotated with measured pEC50
Target: GPR40 (Homo sapiens, UniProt O14842)
Experiment: Cell-based aequorin assay (CHO cells stably expressing GPR40 and aequorin)
Design: expressed in transfected cells; host or cells: CHO cells stably transfected with GPR40 and aequorin
Conditions: activation of human GPR40, CHO cells, 0.01% HSA
pEC50: −log10 of the molar value.

[
  {
    "COMPOUND": "CCC(C)(C)C(OC)c1cc(COc2cccc(C(CC(=O)O)CC3CC3)c2)ccc1-c1cc(OC)ccc1F (single isomer, unassigned) [Example 69.42]",
    "pEC50": "6.00 to 7.00"
  }
]

Query pEC50 on GPR40 (Homo sapiens, UniProt O14842) for CCCCOc1cc(COc2cccc([C@H](C)CC(=O)O)c2)ccc1-c1ccccc1F (single isomer, unassigned)
5.00 to 6.00

Same lookup for C=CC(C)(C)C(OC)c1cc(COc2cccc(C(CC(=O)O)CC3CC3)c2)ccc1-c1cc(OC)ccc1F (single isomer, unassigned) , please.
6.00 to 7.00

Same lookup for `CCOc1cccc(-c2ccc(COc3cccc(CCC(=O)O)c3)cc2C(C)(C)C)c1` , please.
5.00 to 6.00

----------
Molecular target: GPR40 (Homo sapiens)
Test: Cell-based aequorin assay (CHO cells stably expressing GPR40 and aequorin)
Design: expressed in transfected cells; host or cells: CHO cells stably transfected with GPR40 and aequorin
Settings: activation of human GPR40, CHO cells, 0.01% HSA
Method: Briefly, the Aequorin assays were performed on doubly stable CHO cells expressing GPR40 and Aequorin DNA. […] The luminescence was recorded over a period of 20 seconds with a Microlumat luminometer (Berthold). […] The inositol phosphate assay was performed on an A9 cell line stably transfected with GPR40 (A9_GPR40). The cells were incubated with different concentrations of compounds and [^3H] inositol accumulation was measured after 1 hour. […]
Entries annotated with measured EC50

Consider the worked cases shown below.
[
  {
    "COMPOUND": "COc1ccc(F)c(-c2c(F)cc(COc3cccc([C@@H](CC(=O)O)C4CC4)c3)cc2C2=CCCC2(C)C)c1 (single isomer, unassigned) [Example 66.49]",
    "OBSERVED MEASUREMENT": "100 to 1000 nM"
  },
  {
    "COMPOUND": "CCCC(CC(=O)O)c1cccc(OCc2ccc(-c3cc(OC)ccc3F)c(C(OC)C(C)(C)CC)c2)c1 (single isomer, unassigned) [Example 67.26]",
    "OBSERVED MEASUREMENT": "1000 to 10000 nM"
  },
  {
    "COMPOUND": "COc1ccc(F)c(-c2ccc(COc3cccc(C(CC(=O)O)C4CC4)c3F)cc2C2CCCC2(C)C)c1 (single isomer, unassigned) [Example 83.1]",
    "OBSERVED MEASUREMENT": "10 to 100 nM"
  },
  {
    "COMPOUND": "COc1ccc(F)c(-c2ccc(COc3cccc(C(C)CC(=O)O)c3)cc2OCC(C)(C)C)c1 (single isomer, unassigned) [Example 64.1]",
    "OBSERVED MEASUREMENT": "100 to 1000 nM"
  },
  {
    "COMPOUND": "COc1ccc(F)c(-c2ccc(COc3cccc([C@@H](CC(=O)O)C4CC4)c3F)cc2[C@H](O)C2(C)CC2)c1 (single isomer, unassigned) [Example 83.18]",
    "OBSERVED MEASUREMENT": "1000 to 10000 nM"
  },
  {
    "COMPOUND": "CCC(CC(=O)O)c1cccc(OCc2cc(C3CCCC3(C)C)c(-c3cc(OC)ccc3F)cc2F)c1 (single isomer, unassigned) [Example 78.10]",
    "OBSERVED MEASUREMENT": "100 to 1000 nM"
  }
]

Next, consider the following compound.
Query EC50 on GPR40 (Homo sapiens) for COc1cc(-c2cc(F)c(COc3cccc(C(C)(C)CC(=O)O)c3)cc2C2CCCC2(C)C)c(F)cn1 (single isomer, unassigned) [Example 85.5]
100 to 1000 nM
